# Test system: Mycobacterium tuberculosis Erdman (pMV306hsp+LuxG13)
# Experiment: log2 fractional inhibitory concentration at 50% inhibition (log2 FIC); higher = more antagonistic
# Reported conditions: growth medium: standard 7H9 OADC glycerol; time point: constant = terminal time point (4.2 d)
Class (required): determined from log2 fractional inhibitory concentration; valid ranges are low bracket: < -0.07; middle bracket: ≥ -0.07 and < 0.06; high bracket: ≥ 0.06

Here are 2 compounds together with their reported answers.
Compound: NNC(=O)c1ccncc1 [isoniazid] + CC(=O)NC[C@H]1CN(c2ccc(N3CCSCC3)c(F)c2)C(=O)O1 [sutezolid]
Class name: middle bracket
//
Compound: CO[C@H]1/C=C/O[C@@]2(C)Oc3c(C)c(O)c4c(O)c(c(/C=N/N5CCN(C)CC5)c(O)c4c3C2=O)NC(=O)/C(C)=C\C=C\[C@H](C)[C@H](O)[C@@H](C)[C@@H](O)[C@@H](C)[C@H](OC(C)=O)[C@@H]1C [rifampicin] + CC(=O)NC[C@H]1CN(c2ccc(N3CCSCC3)c(F)c2)C(=O)O1 [sutezolid]
Class name: low bracket

Lab note: next compound to report on.
For this compound, which bin applies? CO[C@H]1/C=C/O[C@@]2(C)Oc3c(C)c(O)c4c(O)c(c(/C=N/N5CCN(C)CC5)c(O)c4c3C2=O)NC(=O)/C(C)=C\C=C\[C@H](C)[C@H](O)[C@@H](C)[C@@H](O)[C@@H](C)[C@H](OC(C)=O)[C@@H]1C [rifampicin] + CC(C)=CCC/C(C)=C/CNCCNC1C2CC3CC(C2)CC1C3 [SQ109] high bracket

This collection of values is drawn from the supplement of paper PMC9512659.
